Values were extracted from paper PMC10609429.

PROCEDURE SUMMARY: Solubility evaluation of nandrolone esters in oil / benzyl benzoate / benzyl alcohol mixtures
Format: physicochemical
ASSAY SETUP: grape seed oil / benzyl benzoate / benzyl alcohol mixture, 24 °C, oil or lipid, thermodynamic from solid, grape seed oil mixture: 2% benzyl alcohol, 20% benzyl benzoate, 78% oil (v/v); room temperature 24 °C; average of two measurements; read-out: Solubility, GSO
The entries below come with measured solubility values attached.

MOLECULE	solubility, mg/mL
CCCCCCCCCCC(=O)OC1CCC2C3CCC4=CC(=O)CCC4C3CCC12C (stereo not drawn) [NUnd, Nandrolone undecanoate]	173
C[C@]12CC[C@H]3[C@@H](CCC4=CC(=O)CC[C@@H]43)[C@@H]1CC[C@@H]2OC(=O)CCc1ccccc1 [NPhp, Nandrolone phenylpropionate]	137
CCC(=O)OC1CCC2C3CCC4=CC(=O)CCC4C3CCC12C (stereo not drawn) [NPro, Nandrolone propionate]	204
